Target: T1, TerR43-138 (Aspergillus terreus SBUG844, UniProt Q0D1P5 43-138)
T1 sequence: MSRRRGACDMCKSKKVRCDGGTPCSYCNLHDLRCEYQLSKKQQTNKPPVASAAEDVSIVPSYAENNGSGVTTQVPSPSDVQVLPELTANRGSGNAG
Test: SPR; molar ratio 0.88; SPR (Biacore 2000, SA-coated CM3 chip): 10 mM HEPES pH 7.4, 150 mM NaCl, 0.005% P20, 5 mM beta-mercaptoethanol, 1 uM ZnCl2, 25 C; protein 12.5-6400 nM; 1:1 model with mass transport
Conditions: protein: recombinant; (pET-29a; mass used 10218 Da); label: biotin on one strand; 18 bp duplex
So I've got a bunch of binders here, and I need their Kd values.
// return numeric value only (unit: µM, not printed)

Ask: Any idea what Kd was measured for BS4m2 (C directly after 5'-CGG to G) (dsDNA) DNA 1: TCTTCGGGAATACGGACT DNA 2: AGTCCGTATTCCCGAAGA ?
Reply: 1.37

Ask: Queued: BS4 (dsDNA) DNA 1: TCTTCGGCAATACGGACT DNA 2: AGTCCGTATTGCCGAAGA
Reply: 1.07
